Target: T1, full-length wt-AR (VP16 fusion) (human, UniProt P10275 1-920)
T1 sequence (looked up): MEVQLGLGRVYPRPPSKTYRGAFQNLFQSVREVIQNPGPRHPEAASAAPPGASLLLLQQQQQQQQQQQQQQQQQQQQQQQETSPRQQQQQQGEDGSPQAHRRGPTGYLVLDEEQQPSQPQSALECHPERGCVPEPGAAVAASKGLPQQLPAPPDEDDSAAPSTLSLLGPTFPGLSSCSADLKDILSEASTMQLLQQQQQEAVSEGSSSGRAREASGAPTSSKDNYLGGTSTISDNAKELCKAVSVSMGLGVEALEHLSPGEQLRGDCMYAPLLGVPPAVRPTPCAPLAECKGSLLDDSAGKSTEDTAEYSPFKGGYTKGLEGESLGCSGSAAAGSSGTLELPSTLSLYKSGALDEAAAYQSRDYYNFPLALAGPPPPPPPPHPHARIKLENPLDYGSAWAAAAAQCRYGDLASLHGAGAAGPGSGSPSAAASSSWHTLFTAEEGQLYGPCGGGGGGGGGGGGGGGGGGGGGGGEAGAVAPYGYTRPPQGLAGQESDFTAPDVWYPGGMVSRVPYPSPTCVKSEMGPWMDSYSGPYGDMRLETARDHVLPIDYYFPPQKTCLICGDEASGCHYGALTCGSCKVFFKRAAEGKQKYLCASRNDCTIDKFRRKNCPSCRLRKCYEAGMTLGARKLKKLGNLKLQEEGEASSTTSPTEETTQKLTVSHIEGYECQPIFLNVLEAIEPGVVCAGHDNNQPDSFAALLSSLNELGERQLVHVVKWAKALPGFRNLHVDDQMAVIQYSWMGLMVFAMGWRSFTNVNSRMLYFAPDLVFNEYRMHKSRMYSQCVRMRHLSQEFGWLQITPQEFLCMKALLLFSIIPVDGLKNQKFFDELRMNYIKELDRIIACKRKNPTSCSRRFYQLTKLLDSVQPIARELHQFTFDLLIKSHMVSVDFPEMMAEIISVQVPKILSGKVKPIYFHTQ
Test: two-hybrid
parameter measured: two-hybrid reporter activity (Gal-4 = 1)
Output spec: single numeric token, no unit.

The cases that follow already have their two-hybrid reporter activity (Gal-4 = 1) on record.
binder: SPTPHFTRLFHY [B310 (Gal-4 fusion)]
two-hybrid reporter activity (Gal-4 = 1): 17800
--
binder: HNTKFSTFYNMD [B37 (Gal-4 fusion)]
two-hybrid reporter activity (Gal-4 = 1): 9160
--
binder: HPARTSFETHYM [B411 (Gal-4 fusion)]
two-hybrid reporter activity (Gal-4 = 1): 13
--
binder: PAPKFKEFFYAE [A43 (Gal-4 fusion)]
two-hybrid reporter activity (Gal-4 = 1): 8840
--
binder: DPPTSKFSTFYQ [A48 (Gal-4 fusion)]
two-hybrid reporter activity (Gal-4 = 1): 32

Input line: Look up and report measured two-hybrid reporter activity (Gal-4 = 1) for this entry: SHSSFYQYYLDN [A310 (Gal-4 fusion)]
Output line: 4770

Input line: Look up and report measured two-hybrid reporter activity (Gal-4 = 1) for this entry: NTNAFSRLFYPS [#3-18 (Gal-4 fusion)]
Output line: 12500

Input line: Look up and report measured two-hybrid reporter activity (Gal-4 = 1) for this entry: HASPFEMHYLLG [HF-26 (Gal-4 fusion)]
Output line: 8900

Input line: Look up and report measured two-hybrid reporter activity (Gal-4 = 1) for this entry: NPRTPTTFERYY [B414 (Gal-4 fusion)]
Output line: 18

Input line: Look up and report measured two-hybrid reporter activity (Gal-4 = 1) for this entry: NTPLFQTFYNQR [B45 (Gal-4 fusion)]
Output line: 18000

Input line: Look up and report measured two-hybrid reporter activity (Gal-4 = 1) for this entry: SFYDFYNGASTP [C41 (Gal-4 fusion)]
Output line: 23

Input line: Look up and report measured two-hybrid reporter activity (Gal-4 = 1) for this entry: HKASPFNYYYLN [B311 (Gal-4 fusion)]
Output line: 46

Input line: Look up and report measured two-hybrid reporter activity (Gal-4 = 1) for this entry: SPTRLFDHLYMT [B423 (Gal-4 fusion)]
Output line: 1220

Input line: Look up and report measured two-hybrid reporter activity (Gal-4 = 1) for this entry: SDSAFSRLYTRS [C320 (Gal-4 fusion)]
Output line: 13400

Input line: Look up and report measured two-hybrid reporter activity (Gal-4 = 1) for this entry: SSFADLWRNEAT [C314 (Gal-4 fusion)]
Output line: 1140

Input line: Look up and report measured two-hybrid reporter activity (Gal-4 = 1) for this entry: HTSMFESFFRKE [HF-15 (Gal-4 fusion)]
Output line: 11500
